Molecular target: Y4 receptor (UniProt P50391 1-375, limits assumed)
Sequence (P50391 whole entry): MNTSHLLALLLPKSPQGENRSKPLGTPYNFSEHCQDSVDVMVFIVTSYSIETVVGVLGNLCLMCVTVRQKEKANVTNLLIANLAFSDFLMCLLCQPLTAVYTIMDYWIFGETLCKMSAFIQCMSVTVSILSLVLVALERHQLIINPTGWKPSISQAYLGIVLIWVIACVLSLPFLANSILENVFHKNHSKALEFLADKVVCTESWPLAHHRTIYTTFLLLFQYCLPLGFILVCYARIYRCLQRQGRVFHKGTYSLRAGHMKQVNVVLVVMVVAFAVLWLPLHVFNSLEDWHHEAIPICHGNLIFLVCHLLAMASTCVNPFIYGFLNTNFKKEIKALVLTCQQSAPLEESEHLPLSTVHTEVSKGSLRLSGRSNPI
Experiment: cell-based or functional assay
*1 amine or outer side, *2 acyl side, *3 side chain or, on linkers, in order; H or OH if unused. Where no end group is shown, it is not given here. Side-chain parts run from the residue outwards. The star is where a group is joined. C20 diacid = O=C(O)CCCCCCCCCCCCCCCCCCC(=O)*; C18 diacid = O=C(O)CCCCCCCCCCCCCCCCC(=O)*; γGlu = O=C(O)[C@H](CCC(=O)[*:2])N[*:1]; Trx = NC[C@H]1CC[C@H](C(=O)O)CC1; AEEA = NCCOCCOCC(=O)O
Exercise: state measured Y4 cAMP EC50 for each of the binders provided.
Kindly provide the numeric value in nM only, without the unit symbol.

What measured Y4 cAMP EC50 goes with APLEPVYPGDNATPEQLAQYAADLRRYINLLTRPRY (not fully specified (N-terminus); printed as N-alfa-[2-(2-{2-[2-(2-{2-[(S)-4-Carboxy-4-({trans-4-[(19-carboxynonadecanoylamino)methyl]cyclohexanecarbonyl}amino)butyrylamino]-ethoxy}ethoxy)acetylamino]ethoxy}ethoxy)acetyl][Leu17,Leu30]hPP1-36; ends and bridges not checked) ? 3.2

Quick one: Y4 cAMP EC50 of PLEPVYPGDNATPEQLK([AEEA-AEEA-γGlu-Trx-C20 diacid])QYAADLRRYINLLTRPRY (ends and bridges not checked) ? 0.8

Which Y4 cAMP EC50 value is on record for APLEPVYPGDNAK([AEEA-AEEA-γGlu-C18 diacid])PEQMAQYAADLRRYINMLTRPRY (ends and bridges not checked) ? 4

For PLEPVYPGDNATPEQLAQYAADLRRYINLLTRPRY (ends and bridges not checked) [[Leu17,Leu30]hPP2-36] , what is its reported Y4 cAMP EC50? 0.9

Which Y4 cAMP EC50 reading was recorded for the binder APLEPVYPGDNAK([AEEA-AEEA-γGlu-Trx-C20 diacid])PEQLAQYAADLRRYINLLTRQRY (ends and bridges not checked) ? 18

For PLEPVYPGDNATPEQLK([AEEA-AEEA-γGlu-C18 diacid])QYAADLRRYINLLTRPRY (ends and bridges not checked) , what is its reported Y4 cAMP EC50? 0.4

Quick check: Y4 cAMP EC50 of PLEPVYPGDNATPEQLAQYAADLRK([AEEA-AEEA-γGlu-Trx-C20 diacid])YINLLTRPRY (ends and bridges not checked) ? 7
